Overview of reported Emax across a group of compounds:
# Study System: human GR (Homo sapiens)
# Test Method Notes: Trans-Activation Modulation of Glucocorticoid Receptor (GRAMMER), MMTV-LUC reporter, agonist mode
# Type: cell-based
# Parameters: endogenous in cells
# Reported Conditions: A549, A549 cells; maximum activity; read-out: Transactivation A549 Cells GRAMMER Emax

{"Chem Smiles": "C[C@]12Cc3cnn(-c4ccc(F)cc4)c3C=C1CC[C@@H]2CN(CCc1ccccc1F)S(=O)(=O)c1ccccc1Cl", "Study System": "human GR (Homo sapiens)", "Measurement Units": "%", "Emax": 64.9}
{"Chem Smiles": "Cn1nc(C(F)(F)F)cc1-c1ccc(S(=O)(=O)N(CC#N)C[C@H]2CCC3=Cc4c(cnn4-c4ccc(F)cc4)C[C@@]32C)s1", "Study System": "human GR (Homo sapiens)", "Measurement Units": "%", "Emax": 4.9}
{"Chem Smiles": "C[C@]12Cc3cnn(-c4ccc(F)cc4)c3C=C1CC[C@@H]2CN(CCO)S(=O)(=O)c1cccc(Cl)c1Cl", "Study System": "human GR (Homo sapiens)", "Measurement Units": "%", "Emax": 5.8}

###

# Study System: human GR (Homo sapiens)
# Sequence (P04150 1-777): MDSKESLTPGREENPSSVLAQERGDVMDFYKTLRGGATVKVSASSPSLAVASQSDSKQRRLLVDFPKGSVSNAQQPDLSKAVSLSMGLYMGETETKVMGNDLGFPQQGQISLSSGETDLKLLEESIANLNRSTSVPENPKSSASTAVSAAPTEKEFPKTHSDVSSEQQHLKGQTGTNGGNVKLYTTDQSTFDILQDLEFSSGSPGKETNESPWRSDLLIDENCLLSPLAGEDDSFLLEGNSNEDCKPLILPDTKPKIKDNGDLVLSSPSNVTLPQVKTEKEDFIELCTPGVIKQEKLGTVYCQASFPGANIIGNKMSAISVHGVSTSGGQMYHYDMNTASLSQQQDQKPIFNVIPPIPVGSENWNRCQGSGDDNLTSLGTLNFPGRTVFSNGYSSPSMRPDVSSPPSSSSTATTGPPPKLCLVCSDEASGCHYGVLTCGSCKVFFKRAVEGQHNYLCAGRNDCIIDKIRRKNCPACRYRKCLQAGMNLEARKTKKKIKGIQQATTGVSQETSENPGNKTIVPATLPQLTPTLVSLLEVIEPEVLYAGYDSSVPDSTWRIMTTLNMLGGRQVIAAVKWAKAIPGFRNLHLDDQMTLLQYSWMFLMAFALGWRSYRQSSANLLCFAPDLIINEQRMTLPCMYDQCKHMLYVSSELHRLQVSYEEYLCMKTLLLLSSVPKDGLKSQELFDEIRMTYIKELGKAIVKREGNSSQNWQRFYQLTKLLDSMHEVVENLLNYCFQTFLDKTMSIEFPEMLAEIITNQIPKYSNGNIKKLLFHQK
# Test Method Notes: Transrepression Assay (GITAR), TNFα-β-lactamase reporter in U937 cells
# Format: cell-based
# Design: U937 cells contain an endogenous glucocorticoid receptor (GR); endogenous in cells; host or cells: U937 cells stably transfected with the TNF-alpha promoter/beta-lactamase reporter
# Reported Conditions: U937 cells; inflection point; read-out: Transrepression U937 Cells GITAR IP
# Description: This assay assesses the ability of test compounds to control transcription from the TNFα-β-lactamase reporter gene in U937 cells, a human myelomonocytic leukemia cell line that naturally expresses the human GR. The assay measures compound dependent-repression of the TNFa promoter linked to a reporter gene. The human U937 cells that had been stablely transfected with the TNF-α promoter driving β-lactamase are used for this assay. U937 cells contain an endogenous glucocorticoid receptor (GR). […]
Result Type: log10(EC50) (log10 of the value in nM)

{"Molecule": "C[C@@H](O)CN(C[C@H]1CCC2=Cc3c(cnn3-c3ccc(F)cc3)C[C@@]21C)S(=O)(=O)Cc1ccccc1C(=O)O", "log10(EC50)": 3.28}
{"Molecule": "C[C@]12Cc3cnn(-c4ccc(F)cc4)c3C=C1CC[C@@H]2CN(CCc1ccccc1O)S(=O)(=O)Cc1cccnc1", "log10(EC50)": 2.64}
{"Molecule": "C[C@]12Cc3cnn(-c4ccc(F)cc4)c3C=C1CC[C@@H]2CN(CCc1ccccc1F)S(=O)(=O)Cc1ccccc1Cl", "log10(EC50)": 1.73}
{"Molecule": "C[C@]12Cc3cnn(-c4ccccc4)c3C=C1CC[C@@H]2CN(CCc1ccccc1F)S(=O)(=O)CC(F)(F)F", "log10(EC50)": 2.51}
{"Molecule": "COc1ccccc1CCN(C[C@H]1CCC2=Cc3c(cnn3-c3ccc(F)cc3)C[C@@]21C)S(=O)(=O)Cc1cccnc1", "log10(EC50)": 2.76}
{"Molecule": "COC(=O)c1ccccc1S(=O)(=O)N(C[C@H]1CCC2=Cc3c(cnn3-c3ccc(F)cc3)C[C@@]21C)C[C@@H](C)O", "log10(EC50)": 2.84}
{"Molecule": "C[C@]12Cc3cnn(-c4ccc(F)cc4)c3C=C1CC[C@@H]2CN(CCC(N)C(F)(F)F)S(=O)(=O)CC(F)(F)F (stereo partly shown)", "log10(EC50)": 2.85}
